- Target Under Test: Cytochrome P450 1A2 (Homo sapiens, UniProt P05177)
- Sequence (P05177 whole entry): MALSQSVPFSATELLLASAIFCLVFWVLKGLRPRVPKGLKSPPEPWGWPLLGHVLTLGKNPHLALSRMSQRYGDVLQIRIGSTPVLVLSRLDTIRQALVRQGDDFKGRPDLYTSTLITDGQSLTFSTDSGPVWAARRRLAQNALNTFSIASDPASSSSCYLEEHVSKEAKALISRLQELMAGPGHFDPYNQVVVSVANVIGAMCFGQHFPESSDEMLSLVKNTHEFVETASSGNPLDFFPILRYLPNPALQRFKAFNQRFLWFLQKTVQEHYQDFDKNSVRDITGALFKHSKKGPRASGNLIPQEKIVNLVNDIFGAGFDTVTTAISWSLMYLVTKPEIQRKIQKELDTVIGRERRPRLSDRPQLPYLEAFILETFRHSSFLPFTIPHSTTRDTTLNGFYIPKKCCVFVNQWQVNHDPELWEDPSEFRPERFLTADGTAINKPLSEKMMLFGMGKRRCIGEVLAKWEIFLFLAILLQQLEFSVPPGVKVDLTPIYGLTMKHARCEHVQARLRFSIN
pIC50: −log10 of the molar value.
Property Name: pIC50

[ask] I'm curious: which pIC50 was measured for "CC1(C)CN2C(CS/C(=N\C3CCCCC3)NC3CCCCC3)=CSC2=N1" tested on Cytochrome P450 1A2 (Homo sapiens, UniProt P05177)?
[reply] < 5.00

* * *

Reported pIC50 values for a set of compounds
- Target Under Test: C-X-C chemokine receptor type 4 (Homo sapiens)
- Sequence (P61073 whole entry): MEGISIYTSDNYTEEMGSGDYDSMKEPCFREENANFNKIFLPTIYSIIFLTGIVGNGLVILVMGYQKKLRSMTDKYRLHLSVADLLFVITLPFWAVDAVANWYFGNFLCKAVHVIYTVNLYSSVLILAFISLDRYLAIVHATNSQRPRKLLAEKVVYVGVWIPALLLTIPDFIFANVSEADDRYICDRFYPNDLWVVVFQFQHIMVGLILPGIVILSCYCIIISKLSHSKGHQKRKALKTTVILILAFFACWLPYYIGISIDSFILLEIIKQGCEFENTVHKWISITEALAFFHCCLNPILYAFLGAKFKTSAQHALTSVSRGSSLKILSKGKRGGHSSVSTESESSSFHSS
- Run Description: Activity at CXCR4 in human CEM cells assessed as inhibition of CXCL12-induced calcium mobilization
- Format: functional, cell-based, CCRF-CEM
Keep in mind that pIC50 stands for -log10 of concentration in molar terms.

Worked examples, 2 compounds total:
compound="C1=C(CSC(=NC2CCCCC2)NC2C3CC4CC(C3)CC2C4)N2CCN=C2S1 (stereo unspecified)" result_number=7.89
compound=C1=C(CS/C(=N\C2CCCCCCC2)NC2CCCCCCC2)N2CCN=C2S1 result_number=8.28

[ask] Quick one: pIC50 for "c1ccc2c(c1)nc1scc(CS/C(=N\C3CCCCC3)NC3CCCCC3)n12" ?
[reply] 5.09

[ask] Quick one: pIC50 for CC(C)(C)C1CCC(NC(=NC2CCCCC2)SCC2=CSC3=NCCN23)CC1 (stereo unspecified) ?
[reply] 6.36

[ask] Quick one: pIC50 for c1ccc(CNC(=NC2CCCCC2)SCC2CSC3=NCCN32)cc1 (stereo unspecified) ?
[reply] 5.65

[ask] Quick one: pIC50 for "C/N=c1/scc(CS/C(=N\C2CCCCC2)NC2CCCCC2)n1C" ?
[reply] 5.04

[ask] Quick one: pIC50 for "CN(/C(=N/C1CCCCC1)SCC1=CSC2=NCCN12)C1CCCCC1" ?
[reply] 6.03

* * *

- Target Under Test: Cytochrome P450 2D6 (Homo sapiens, UniProt P10635)
- Sequence (P10635 whole entry): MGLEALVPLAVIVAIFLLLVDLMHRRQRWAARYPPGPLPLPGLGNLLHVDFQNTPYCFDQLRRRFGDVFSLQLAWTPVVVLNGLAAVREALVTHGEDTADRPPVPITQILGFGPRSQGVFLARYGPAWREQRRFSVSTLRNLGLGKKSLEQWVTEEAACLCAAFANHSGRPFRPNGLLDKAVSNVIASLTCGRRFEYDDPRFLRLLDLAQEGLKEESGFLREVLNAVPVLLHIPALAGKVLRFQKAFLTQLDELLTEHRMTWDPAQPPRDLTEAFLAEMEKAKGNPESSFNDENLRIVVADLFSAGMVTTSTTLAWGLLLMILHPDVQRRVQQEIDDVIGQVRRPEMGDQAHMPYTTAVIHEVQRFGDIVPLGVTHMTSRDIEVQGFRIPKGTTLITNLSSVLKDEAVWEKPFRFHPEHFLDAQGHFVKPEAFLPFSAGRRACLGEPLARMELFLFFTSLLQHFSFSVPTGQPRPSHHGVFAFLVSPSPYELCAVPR
Property Name: IC50

[ask] I'm curious: which IC50 was measured for "CC1(C)CN2C(CS/C(=N\C3CCCCC3)NC3CCCCC3)=CSC2=N1" tested on Cytochrome P450 2D6 (Homo sapiens, UniProt P10635)?
[reply] 0.4 µM

* * *

- Run Description: Solubility in pH 6.8 buffer
- Assay type: physicochemical
Property Name: solubility

mol_smiles=C1=C(CS/C(=N\C2CCCCC2)NC2CCCCC2)N2CCN=C2S1 result="> 5000 µg/mL"

[ask] Quick one: solubility for "CC1(C)CN2C(CS/C(=N\C3CCCCC3)NC3CCCCC3)=CSC2=N1" ?
[reply] > 5000 µg/mL

* * *

Reported logD values for a set of compounds
- Run Description: Distribution coefficient, log D of the compound
- Format: physicochemical
- Condition Details: octanol/water
Lab note: record the figure alone, no unit after it.

mol_smiles=C1=C(CS/C(=N\C2CCCCC2)NC2CCCCC2)N2CCN=C2S1 property_name=logD result_number=-0.2

Field: next compound
[ask] Quick one: logD for "CC1(C)CN2C(CS/C(=N\C3CCCCC3)NC3CCCCC3)=CSC2=N1" ?
[reply] 1.2

* * *

- Run Description: Half life in Lewis rat at 10 mg/kg, po
- Type: ADME, organism-based
- Set-up: dose 10 mg/kg, route oral
- Condition Details: in vivo
Property Name: half-life (h)
// return numeric value only (unit: h, not printed)

mol_smiles=C1=C(CS/C(=N\C2CCCCC2)NC2CCCCC2)N2CCN=C2S1 unit_info=h result_number=7.2

Field: next compound
[ask] Quick one: half-life for "CC1(C)CN2C(CS/C(=N\C3CCCCC3)NC3CCCCC3)=CSC2=N1" ?
[reply] 7.6

Where do the numbers come from? From ChEMBL document CHEMBL1151747.
